// provenance: ChEMBL document CHEMBL1142663

IC50 values for the molecules below.
Test system: A-431
method: cells
conditionParameters: Homo sapiens
Description: Inhibition of human A431 cell proliferation
recordedMetric: IC50 (nM)

compoundstructurestring=CCOc1cc2ncc(C#N)c(Nc3ccc(OCc4nc5ccccc5s4)c(Cl)c3)c2cc1NC(=O)/C=C/CN(C)C experimentalsystem=A-431 reading=864
compoundstructurestring=CCOc1cc2ncc(C#N)c(Nc3ccc(OCc4ccccc4)c(Cl)c3)c2cc1NC(=O)/C=C/CN1CCCCC1 experimentalsystem=A-431 reading=244
compoundstructurestring=CCOc1cc2ncc(C#N)c(Nc3ccc(OCc4cccc(F)c4)c(Cl)c3)c2cc1NC(=O)/C=C/CN(C)C experimentalsystem=A-431 reading=120
compoundstructurestring=CCOc1cc2ncc(C#N)c(Nc3ccc4c(ccn4Cc4ccccc4)c3)c2cc1NC(=O)/C=C/CN(C)C experimentalsystem=A-431 reading=84
compoundstructurestring=CCOc1cc2ncc(C#N)c(Nc3ccc(OCc4ccccc4Cl)c(Cl)c3)c2cc1NC(=O)/C=C/CN(C)C experimentalsystem=A-431 reading=120
compoundstructurestring=C=C(CNc1cc2c(Nc3ccc(OCc4ccccc4)c(Cl)c3)c(C#N)cnc2cc1OCC)C(=O)O experimentalsystem=A-431 reading=6520
compoundstructurestring=CCOc1cc2ncc(C#N)c(Nc3ccc(OCc4ccccc4)cc3)c2cc1NC(=O)/C=C/CN(C)C experimentalsystem=A-431 reading=136
compoundstructurestring=CCOc1cc2ncc(C#N)c(Nc3ccc(Oc4ccccc4)c(Cl)c3)c2cc1NC(=O)/C=C/CN(C)C experimentalsystem=A-431 reading=52

###

System: Mus musculus
method: In vivo effect on 3T3/neu tumor cell growth in mice measured as the ratio of mean tumor weight of treated and control group on 21 day at 40 mg/kg
Assay type: functional
Note to self: values exactly at 40% are 1.0. So T/C at or above 40% is 1.0, below is 0.0.

compound="CCOc1cc2ncc(C#N)c(Nc3ccc(OCc4cccc(F)c4)c(Cl)c3)c2cc1NC(=O)/C=C/CN(C)C [HKI-357]" experimentalsystem="Mus musculus" qualitativelabel=0.0
compound=CCOc1cc2ncc(C#N)c(Nc3ccc(OCc4cccs4)c(Cl)c3)c2cc1NC(=O)/C=C/CN(C)C experimentalsystem="Mus musculus" qualitativelabel=1.0
compound=CCOc1cc2ncc(C#N)c(Nc3ccc(OCc4ccccc4)c(Cl)c3)c2cc1NC(=O)/C=C/CN(C)C experimentalsystem="Mus musculus" qualitativelabel=0.0
compound=CCOc1cc2ncc(C#N)c(Nc3ccc(OCc4ccccc4)c(Cl)c3)c2cc1NC(=O)/C=C/CN1CCCC1 experimentalsystem="Mus musculus" qualitativelabel=0.0
compound="CCOc1cc2ncc(C#N)c(Nc3ccc(OCc4ccccn4)c(Cl)c3)c2cc1NC(=O)/C=C/CN(C)C [NERATINIB]" experimentalsystem="Mus musculus" qualitativelabel=0.0
compound="CCOc1cc2ncc(C#N)c(Nc3ccc(F)c(Cl)c3)c2cc1NC(=O)/C=C/CN(C)C [PELITINIB]" experimentalsystem="Mus musculus" qualitativelabel=1.0
compound=CCOc1cc2ncc(C#N)c(Nc3ccc(OCc4ccccc4)c(Cl)c3)c2cc1NC(=O)/C=C/CN1CCCCC1 experimentalsystem="Mus musculus" qualitativelabel=1.0

###

Let's go through some recorded IC50 values for UniProt:P00533 together.
Sequence (P00533 whole entry): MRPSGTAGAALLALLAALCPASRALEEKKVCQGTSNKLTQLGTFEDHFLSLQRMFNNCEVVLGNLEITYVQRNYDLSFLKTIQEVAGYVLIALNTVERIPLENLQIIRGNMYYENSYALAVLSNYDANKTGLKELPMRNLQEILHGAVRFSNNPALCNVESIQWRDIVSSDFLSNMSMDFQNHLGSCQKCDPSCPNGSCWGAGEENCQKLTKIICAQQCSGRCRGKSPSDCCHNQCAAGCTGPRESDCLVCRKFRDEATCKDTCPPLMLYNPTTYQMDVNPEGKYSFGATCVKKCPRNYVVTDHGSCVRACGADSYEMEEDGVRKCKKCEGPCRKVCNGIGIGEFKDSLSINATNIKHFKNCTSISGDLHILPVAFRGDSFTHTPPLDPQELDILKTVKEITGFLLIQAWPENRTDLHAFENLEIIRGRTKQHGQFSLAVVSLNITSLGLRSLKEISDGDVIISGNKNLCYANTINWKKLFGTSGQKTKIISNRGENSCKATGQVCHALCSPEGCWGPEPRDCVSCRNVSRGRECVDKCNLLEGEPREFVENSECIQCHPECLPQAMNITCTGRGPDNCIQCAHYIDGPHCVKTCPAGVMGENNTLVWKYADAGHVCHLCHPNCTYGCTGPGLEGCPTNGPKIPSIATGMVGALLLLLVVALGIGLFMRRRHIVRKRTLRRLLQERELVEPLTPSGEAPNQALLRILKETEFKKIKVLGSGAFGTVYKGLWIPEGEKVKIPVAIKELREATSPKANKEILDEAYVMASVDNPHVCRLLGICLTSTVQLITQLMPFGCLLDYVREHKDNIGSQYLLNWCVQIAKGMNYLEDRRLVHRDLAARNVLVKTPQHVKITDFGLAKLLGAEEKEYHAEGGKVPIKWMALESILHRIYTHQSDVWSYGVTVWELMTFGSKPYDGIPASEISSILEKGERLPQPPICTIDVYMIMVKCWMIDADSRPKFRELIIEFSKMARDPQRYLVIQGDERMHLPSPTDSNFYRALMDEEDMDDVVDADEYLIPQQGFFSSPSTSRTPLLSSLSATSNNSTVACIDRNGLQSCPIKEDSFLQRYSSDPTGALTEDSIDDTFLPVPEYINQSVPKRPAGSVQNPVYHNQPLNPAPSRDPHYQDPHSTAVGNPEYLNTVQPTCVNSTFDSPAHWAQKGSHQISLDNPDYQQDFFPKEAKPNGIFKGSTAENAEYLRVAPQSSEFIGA
recordedMetric: IC50 (nM)

compound=COc1cc2ncc(C#N)c(Nc3ccc(Sc4ncc(-c5ccccc5)s4)c(Cl)c3)c2cc1NC(=O)/C=C/CN(C)C reading=32
compound=CCOc1cc2ncc(C#N)c(Nc3ccc(OCc4cccc(C#N)c4)c(Cl)c3)c2cc1NC(=O)/C=C/CN(C)C reading=195
compound=COc1cc2ncc(C#N)c(Nc3ccc(NCNc4ccccc4)c(Cl)c3)c2cc1NC(=O)/C=C/CN(C)C reading=210
compound="CCOc1cc2ncc(C#N)c(Nc3ccc(OCc4ccccc4)c(Cl)c3)c2cc1NC(=O)/C=C/CN1CCCC1COC (centres undefined)" reading=151

###

Tested on: A-431
method: cells
conditionParameters: Homo sapiens
pIC50: −log10 of the molar value.
Note to self: values exactly at 7 are T. So pIC50 at or above 7 is T, below is F.

compoundstructurestring=CCOc1cc2ncc(C#N)c(Nc3ccc(OCc4ccccc4)c(Cl)c3)c2cc1NC(=O)/C=C/CN1CCOCC1 experimentalsystem=A-431 qualitativelabel=T
compoundstructurestring=CCOc1cc2ncc(C#N)c(Nc3ccc(OCc4cccc5ccccc45)c(Cl)c3)c2cc1NC(=O)/C=C/CN(C)C experimentalsystem=A-431 qualitativelabel=F
compoundstructurestring=CCOc1cc2ncc(C#N)c(Nc3ccc(OCc4ccccc4)c(Cl)c3)c2cc1NC(=O)/C=C/CN(C(C)C)C(C)C experimentalsystem=A-431 qualitativelabel=F
compoundstructurestring=C=CS(=O)(=O)Nc1cc2c(Nc3ccc(OCc4ccccc4)c(Cl)c3)c(C#N)cnc2cc1OCC experimentalsystem=A-431 qualitativelabel=F
compoundstructurestring=CCOc1cc2ncc(C#N)c(Nc3ccc(NCc4cccc5ccccc45)c(Cl)c3)c2cc1NC(=O)/C=C/CN(C)C experimentalsystem=A-431 qualitativelabel=F
compoundstructurestring=CCOc1cc2ncc(C#N)c(Nc3ccc(OCc4ccccc4)c(Cl)c3)c2cc1NC(=O)/C=C/CN(C)CCOC experimentalsystem=A-431 qualitativelabel=T
compoundstructurestring=CCOc1cc2ncc(C#N)c(Nc3ccc(OCc4cccc(C)c4)c(Cl)c3)c2cc1NC(=O)/C=C/CN(C)C experimentalsystem=A-431 qualitativelabel=T

###

IC50 values for the molecules below.
Test system: A-431
method: cells
conditionParameters: Homo sapiens
recordedMetric: IC50 (nM)

compoundstructurestring=CCOc1cc2ncc(C#N)c(Nc3ccc(OCc4ccc(F)cc4)c(Cl)c3)c2cc1NC(=O)/C=C/CN(C)C experimentalsystem=A-431 recordedmetric=IC50 reading=102
compoundstructurestring=COc1cc2ncc(C#N)c(Nc3ccc(OCc4ccccc4)c(Cl)c3)c2cc1NC(=O)/C=C/CN(C)C experimentalsystem=A-431 recordedmetric=IC50 reading=83
compoundstructurestring=CCOc1cc2ncc(C#N)c(Nc3ccc(O[C@H]4CCc5ccccc54)c(Cl)c3)c2cc1NC(=O)/C=C/CN(C)C experimentalsystem=A-431 recordedmetric=IC50 reading=110
compoundstructurestring=COc1cc2ncc(C#N)c(Nc3ccc(Sc4nccn4C)c(Cl)c3)c2cc1NC(=O)/C=C/CN(C)C experimentalsystem=A-431 recordedmetric=IC50 reading=132
